Tested on: T-cell
test summary: IL-2 secretion from T-cells co-stimulated with anti-CD3 and anti-CD28 antibody (Biological Example 2)
Type: cell-based, human
assay context: Homo sapiens, T-cell, 0.3 μM Cbl-b inhibitor; fold change over baseline (anti-CD3/anti-CD28 stimulated T-cells without inhibitor); read-out: IL-2 secretion Anti-CD3/Anti-CD28 stimulation
Source text: Methods for experimentally determining increased T-cell activation, increased T-cell proliferation, decreased T-cell exhaustion, and/or decreased T-cell tolerance are well known in the art. Modulation of activity of an immune cell, such as a T-cell, a B cell or a NK cell can be measured by determining a baseline value for a parameter of interest (e.g., cytokine secretion). […] A positive response for immune cell activation can then be determined by the obtained reference value. […]
readout kind: fold induction at 0.3 µM

• CN1CCN(Cc2cc3c(c(C(F)(F)F)c2)CN(c2cccc(C4(Cc5nncn5C)COC4)c2)C3=O)CC1 = 2.51 to 5
• CC(c1cc2c(c(C3CC3)n1)CN(c1cccc(C3(Cc4nncn4C)COC3)c1)C2=O)N1CC2(CC2)C1 (stereo not drawn) = 1.01 to 2.5
• Cc1cc(C(=O)Nc2cccc(C3(Cc4nncn4C)COC3)c2)n2nccc2n1 = 1.01 to 2.5
• Cn1cnnc1[C@H](F)C1(c2cccc(N3Cc4c(cc(CN5CCCCC5)cc4C(F)(F)F)C3=O)c2)COC1 [Example 674b] = > 7.5
• Cn1cnnc1CC1(c2cccc(NC(=O)c3cc(CN4CC[C@H](F)C4)nc(C4CC4)n3)c2)COC1 = > 7.5
• CO[C@@H]1CCN(Cc2cc3c(c(C(F)(F)F)c2)CN(c2cccc(C4(Cc5nncn5C)COC4)c2)C3=O)C[C@@H]1F (relative stereo) = > 7.5

---

experimental system: Cbl-b (Homo sapiens)
Sequence (Q13191 36-427): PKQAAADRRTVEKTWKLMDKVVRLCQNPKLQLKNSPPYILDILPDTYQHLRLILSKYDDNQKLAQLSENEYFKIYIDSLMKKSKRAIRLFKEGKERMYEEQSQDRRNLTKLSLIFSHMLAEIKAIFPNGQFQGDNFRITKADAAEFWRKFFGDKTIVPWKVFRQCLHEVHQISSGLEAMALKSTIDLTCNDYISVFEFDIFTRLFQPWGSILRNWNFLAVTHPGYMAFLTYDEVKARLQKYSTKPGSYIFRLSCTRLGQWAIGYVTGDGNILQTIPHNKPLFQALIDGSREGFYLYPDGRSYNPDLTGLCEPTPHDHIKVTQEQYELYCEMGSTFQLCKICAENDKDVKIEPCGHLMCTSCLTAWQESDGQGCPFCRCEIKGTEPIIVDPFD
test summary: Cbl-b inhibition assay (Cbl-b activity assay, FRET, Biological Example 1; 100 mM NaCl, 60 nM Src kinase)
Type: biochemical
assay context: upper bound stated in text lists; read-out: IC50 values in the Cbl-b inhibition assay of Biological Example 1
pIC50: −log10 of the molar value.
readout kind: pIC50

- C[C@H](Cc1nncn1C)c1cccc(N2Cc3c(cc(CN4C[C@@H](O)[C@H](F)C4)cc3C(F)(F)F)C2=O)c1: ≥ 7.00
- C[C@H](Cc1nncn1C)c1cccc(NC(=O)c2n[nH]c3c2CCC3)c1: ≥ 6.52
- Cc1cc(C(=O)Nc2cccc([C@H](C)Cc3nncs3)c2)nc(C2CC2)n1: ≥ 6.52
- Cn1cnnc1CC1(c2cccc(N3Cc4c(cc(CN5CC(F)C5(C)C)cc4C(F)(F)F)C3=O)c2)COC1 (stereo not drawn): ≥ 7.00
- Cn1cnnc1C(F)(F)[C@](C)(F)c1cccc(N2Cc3c(cc(-c4cncc(F)c4)cc3C(F)(F)F)C2=O)c1: ≥ 6.52
- C[C@H](Cc1nncn1C)c1cccc(NC(=O)c2cc(C(=O)N3CC[C@@](C)(N)C3)ccn2)c1 [Compound 230, 2,2,2-trifluoroacetate]: ≥ 5.00
- C[C@H]1CN(C)CCN1c1cc2c(c(C(F)(F)F)c1)CN(c1cccc([C@@](C)(F)C(F)(F)c3nncn3C)c1)C2=O: ≥ 7.00
- C[C@H](Cc1nncn1C)c1cccc(N2Cc3c(cc([C@@H](C)N4CC(O)C4)cc3C(F)(F)F)C2=O)c1: ≥ 7.00
- Cn1cnnc1CC1(c2cccc(N3Cc4c(cc(C5=CCCOC5)cc4C(F)(F)F)C3=O)c2)COC1: ≥ 7.00
- C[C@H](Sc1nncn1C)c1cccc(NC(=O)c2ccnc(C(F)(F)F)n2)c1: ≥ 6.30
- C[C@H](Cc1nncn1C)c1cccc(N2Cc3c(cc(CO)cc3C(F)(F)F)C2=O)c1: ≥ 7.00
- Cn1cnnc1[C@@H](F)C1(c2cccc(N3Cc4c(cc(CN5CCCCC5)cc4C(F)(F)F)C3=O)c2)COC1 [Example 674a]: ≥ 7.00
- C=CCC(Sc1nncn1C)c1cccc(NC(=O)c2ccc3ccccc3n2)c1 (stereo not drawn): ≥ 5.00
- CC(c1cc2c(c(C(F)(F)F)c1)CN(c1cccc([C@H](C)Cc3nncn3C)c1)C2=O)N1CC[C@H](O)C1 (stereo partly drawn): ≥ 7.00
- C[C@H](Sc1nncn1C)c1ccnc(NC(=O)c2cc(C(F)(F)F)c3ccccc3n2)c1: ≥ 5.00
- Cn1cnnc1CC1(c2cccc(N3Cc4c(cc(C5CCOC5)cc4C(F)(F)F)C3=O)c2)COC1 (stereo not drawn): ≥ 7.00
- C[C@H](Cc1ncco1)c1cccc(N2Cc3c(cccc3C(F)(F)F)C2=O)c1: ≥ 5.00
- CC(Cc1nocc1CO)c1cccc(N2Cc3c(cccc3C(F)(F)F)C2=O)c1 (stereo not drawn): ≥ 5.00
- CCCOc1cc([C@H](C)Cc2nncn2C)cc(N2Cc3c(cccc3C(F)(F)F)C2=O)n1: ≥ 6.00
- C[C@H](Cc1nncn1C)c1cccc(NC(=O)c2cc(C3(O)COC3)cc(C(F)(F)F)n2)c1: ≥ 6.30
- Cc1cc(C(=O)Nc2cccc(C3(Cc4[nH]ncc4C)COC3)c2)nc(C2CC2)n1: ≥ 7.00
- C[C@H](Cc1nncn1C)c1cccc(NC(=O)c2cc(C(=O)N3CC[C@H](C#N)C3)ccn2)c1: ≥ 5.00
- C[C@H](Sc1nncn1C)c1cccc(NC(=O)c2cc(C(=O)N3CCC3)ccn2)c1: ≥ 5.00
- CCOC1CCCN(Cc2cc3c(c(C(F)(F)F)c2)CN(c2cccc(C4(Cc5nncn5C)COC4)c2)C3=O)C1 (stereo not drawn): ≥ 7.00
- CC(c1cc2c(c(C3CC3)n1)CN(c1cccc(C3(Cc4nncn4C)COC3)c1)C2=O)N1CCCC1 (stereo not drawn): ≥ 7.00
- Cn1cnnc1CC1(c2cccc(N3Cc4c(ccc(F)c4C4CC4)C3=O)c2)COC1: ≥ 6.52
- Cn1cnnc1[C@@H](F)C1(c2cccc(N3Cc4c(cc(CN5[C@@H]6CC[C@H]5C[C@@H](F)C6)cc4C(F)(F)F)C3=O)c2)COC1 [Example 672a]: ≥ 7.00
- C[C@H](Sc1nncn1C)c1cccc(NC(=O)c2cccc(N)c2)c1: ≥ 5.00
- Cn1cnnc1CC1(c2cccc(N3Cc4c(cc(N5CC(C(F)(F)F)C5)cc4C(F)(F)F)C3=O)c2)COC1: ≥ 7.00
- CC(Cc1nccn1C)c1cccc(NC(=O)c2cc(C(=O)N3CC[C@H](O)C3)ccn2)c1 (stereo partly drawn): ≥ 5.00

---

Test system: T-cell
test summary: IL-2 secretion from T-cells co-stimulated with anti-CD3 and anti-CD28 antibody (Biological Example 2)
Format: cell-based, human
assay context: Homo sapiens, T-cell, 0.3 μM compound; primary human total T-cells; baseline = anti-CD3/anti-CD28 stimulated cells without inhibitor; read-out: IL-2 secretion, Anti-CD3/Anti-CD28 stimulation, fold change over baseline
Listed below: fold induction at 0.3 µM values for each entry.
readout kind: fold induction at 0.3 µM

- C[C@H](Cc1nncn1C)c1cccc(N2Cc3c(cc(CN4C[C@@H](F)[C@@H](O)C4)cc3C(F)(F)F)C2=O)c1: 2.51 to 5
- Cn1cnnc1CC(C)(C)c1cccc(NC(=O)c2cc(C(=O)N3CC[C@H](O)C3)cc(C(F)(F)F)n2)c1: 1.01 to 2.5
- C[C@@H](c1cc2c(c(C(F)(F)F)c1)CN(c1cccc(C3(Cc4nncn4C)COC3)c1)C2=O)N1CC[C@H](F)C1: > 7.5
- C[C@H](Cc1nncn1C)c1cccc(N2Cc3c(cc(C4CC4)nc3C3CC3)C2=O)c1: 1.01 to 2.5
- C[C@H](Cc1nncn1C)c1cccc(N2Cc3c(cc([C@@H](C)N4CC[C@H](F)C4)cc3C(F)(F)F)C2=O)c1: 5 to 7.5
- C[C@H](Cc1nncn1C)c1cccc(N2Cc3c(cc(CN4CC(O)C4)cc3C(F)(F)F)C2=O)c1: 2.51 to 5
- Cn1cnnc1CC1(c2cccc(NC(=O)c3csc(C4CC4)n3)c2)COC1: 1.01 to 2.5
- CC[C@@H](c1cc2c(c(C(F)(F)F)c1)CN(c1cccc(C3(Cc4nncn4C)COC3)c1)C2=O)N1CC[C@H](F)C1: > 7.5
- Cn1cnnc1CC1(c2cccc(N3Cc4c(cc(CN5CC[C@H]6C[C@H]65)cc4C(F)(F)F)C3=O)c2)COC1 (single isomer, unassigned) [Compound 486a]: > 7.5
- Cc1n[nH]c(C)c1-c1cc2c(c(C(F)(F)F)c1)CN(c1cccc([C@H](C)Cc3nncn3C)c1)C2=O: 2.51 to 5
- CC(c1cc2c(c(C(F)(F)F)c1)CN(c1cccc([C@H]3C[C@H]3c3nncn3C)c1)C2=O)N1CC[C@H](F)C1 (stereo partly shown): 2.51 to 5
- Cc1cc(C(=O)Nc2cccc([C@@]3(Cc4nncn4C)CCOC3)c2)nc(C2CC2)n1 (single isomer, unassigned) [Compound 534b]: 2.51 to 5
- C[C@H](c1cc2c(c(C(F)(F)F)c1)CN(c1cccc([C@@](C)(F)C(F)(F)c3nncn3C)c1)C2=O)N1CC[C@H](F)C1: 2.51 to 5
